Test system: Klebsiella pneumoniae
experiment-notes: Antibacterial activity against Klebsiella pneumoniae 09-22 after 18 to 24 hrs by twofold serial dilution method
Type: functional
measure: MIC (µg/mL)
// note: answer is a bare numeric in µg/mL

>>> measured_result("CO/N=C1\\CN(c2c(F)cc3c(=O)c(C(=O)O)cn(C4CC4)c3c2OC)CC1/C(N)=N\\O (stereo not given)")
1
>>> measured_result("CO/N=C1\\CN(c2nc3c(cc2F)c(=O)c(C(=O)O)cn3C2CC2)CC1/C(N)=N\\OC (stereo not given)")
1
>>> measured_result("CCO/N=C1\\CN(c2c(F)cc3c(=O)c(C(=O)O)cn(CC)c3c2F)CC1/C(N)=N\\OC (stereo not given)")
8
>>> measured_result("CCn1cc(C(=O)O)c(=O)c2cc(F)c(N3C/C(=N\\OC)C(/C(N)=N\\OC)C3)c(F)c21 (stereo not given)")
1
>>> measured_result("CCO/N=C1\\CN(c2c(F)cc3c(=O)c(C(=O)O)cn(C4CC4)c3c2OC(F)F)CC1/C(N)=N\\OC (stereo not given)")
32
>>> measured_result("CO/N=C1\\CN(c2c(F)cc3c(=O)c(C(=O)O)cn(C4CC4)c3c2OC)CC1/C(N)=N\\OC (stereo not given)")
2
>>> measured_result("CCO/N=C(/N)C1CN(c2c(F)cc3c(=O)c(C(=O)O)cn(CC)c3c2F)C/C1=N\\OC (stereo not given)")
1

Now, please, on to the next molecule.
Recorded MIC for CCO/N=C1\CN(c2c(F)cc3c(=O)c(C(=O)O)cn(C4CC4)c3c2F)CC1/C(N)=N\OC (stereo not given) with Klebsiella pneumoniae, please?
0.25
